sequences and their reported shrunken log2 fold change
system: Escherichia coli TOP10; assay: shrunken log2 fold change of peptide-encoding DNA abundance (4.5 h post-induction vs induction); higher = less antimicrobial activity (less host growth inhibition); settings: time post-induction: 4.5 h; library: site-saturation at positions 5, 18, 19, 20
Experimental readout: shrunken log2 fold change

biopolymer_sequence=RRIRIRPPRLPRPRPRPEVQPRP test_result=-0.022
biopolymer_sequence=RRIRCRPPRLPRPRPRPMLNPRP test_result=-0.38
biopolymer_sequence=RRIRTRPPRLPRPRPRPVMEPRP test_result=0.187
biopolymer_sequence=RRIRKRPPRLPRPRPRPPGPPRP test_result=1.04
biopolymer_sequence=RRIRFRPPRLPRPRPRPTNNPRP test_result=-0.644
biopolymer_sequence=RRIRGRPPRLPRPRPRPYAVPRP test_result=2.53
biopolymer_sequence=RRIRMRPPRLPRPRPRPCTIPRP test_result=-0.263
biopolymer_sequence=RRIRCRPPRLPRPRPRPQCMPRP test_result=-0.833
biopolymer_sequence=RRIRNRPPRLPRPRPRPAKSPRP test_result=0.163
biopolymer_sequence=RRIRARPPRLPRPRPRPWSLPRP test_result=-0.181
biopolymer_sequence=RRIRGRPPRLPRPRPRPVASPRP test_result=0.623
biopolymer_sequence=RRIRTRPPRLPRPRPRPFIQPRP test_result=-0.312
biopolymer_sequence=RRIRRRPPRLPRPRPRPKVMPRP test_result=0.16
biopolymer_sequence=RRIRFRPPRLPRPRPRPIEAPRP test_result=-0.181
biopolymer_sequence=RRIRDRPPRLPRPRPRPLDGPRP test_result=0.0131
biopolymer_sequence=RRIRHRPPRLPRPRPRPAKLPRP test_result=-0.352
biopolymer_sequence=RRIRQRPPRLPRPRPRPEIYPRP test_result=-0.145
biopolymer_sequence=RRIRARPPRLPRPRPRPATGPRP test_result=0.318
biopolymer_sequence=RRIRQRPPRLPRPRPRPWGSPRP test_result=-0.0209
biopolymer_sequence=RRIRQRPPRLPRPRPRPVLAPRP test_result=0.232
biopolymer_sequence=RRIRIRPPRLPRPRPRPVLRPRP test_result=-0.0796
biopolymer_sequence=RRIRHRPPRLPRPRPRPKKHPRP test_result=-0.324
biopolymer_sequence=RRIRCRPPRLPRPRPRPYHYPRP test_result=-0.364
biopolymer_sequence=RRIRRRPPRLPRPRPRPMYPPRP test_result=-0.197
biopolymer_sequence=RRIRRRPPRLPRPRPRPMISPRP test_result=0.044
biopolymer_sequence=RRIRPRPPRLPRPRPRPPSTPRP test_result=0.123
biopolymer_sequence=RRIRCRPPRLPRPRPRPILIPRP test_result=1.28
biopolymer_sequence=RRIRARPPRLPRPRPRPPWDPRP test_result=0.72
biopolymer_sequence=RRIRLRPPRLPRPRPRPIGCPRP test_result=-0.0407
biopolymer_sequence=RRIRSRPPRLPRPRPRPIVFPRP test_result=-0.0485
biopolymer_sequence=RRIRWRPPRLPRPRPRPHMFPRP test_result=-0.0668
biopolymer_sequence=RRIRTRPPRLPRPRPRPLVQPRP test_result=0.149

---

system: Escherichia coli TOP10; test: shrunken log2 fold change of peptide-encoding DNA abundance (4.5 h post-induction vs induction); higher = less antimicrobial activity (less host growth inhibition); conditions: time post-induction: 4.5 h; library: site-saturation at positions 5, 18, 19, 20
Definition: the class of an entry is the range in bottom bin: < -0.1; middle bin: ≥ -0.1 and < 0.07; top bin: ≥ 0.07 that contains its shrunken log2 fold change.

biopolymer_sequence=RRIRQRPPRLPRPRPRPCMAPRP group="bottom bin"
biopolymer_sequence=RRIRHRPPRLPRPRPRPGKLPRP group="top bin"
biopolymer_sequence=RRIRVRPPRLPRPRPRPPMQPRP group="top bin"
biopolymer_sequence=RRIRARPPRLPRPRPRPLCKPRP group="top bin"
biopolymer_sequence=RRIRYRPPRLPRPRPRPRPKPRP group="top bin"
biopolymer_sequence=RRIRPRPPRLPRPRPRPSFDPRP group="bottom bin"
biopolymer_sequence=RRIRFRPPRLPRPRPRPFVSPRP group="bottom bin"
biopolymer_sequence=RRIRLRPPRLPRPRPRPRVNPRP group="bottom bin"
biopolymer_sequence=RRIRERPPRLPRPRPRPIPFPRP group="middle bin"
biopolymer_sequence=RRIRIRPPRLPRPRPRPMVFPRP group="bottom bin"
biopolymer_sequence=RRIRWRPPRLPRPRPRPYPGPRP group="middle bin"
biopolymer_sequence=RRIRLRPPRLPRPRPRPEPIPRP group="middle bin"
biopolymer_sequence=RRIRWRPPRLPRPRPRPLQIPRP group="bottom bin"
biopolymer_sequence=RRIRPRPPRLPRPRPRPTCRPRP group="top bin"
biopolymer_sequence=RRIRWRPPRLPRPRPRPSDIPRP group="middle bin"
biopolymer_sequence=RRIRSRPPRLPRPRPRPGRMPRP group="top bin"
biopolymer_sequence=RRIRRRPPRLPRPRPRPQHWPRP group="top bin"
biopolymer_sequence=RRIRHRPPRLPRPRPRPIEAPRP group="bottom bin"
biopolymer_sequence=RRIRIRPPRLPRPRPRPGWKPRP group="middle bin"
biopolymer_sequence=RRIRMRPPRLPRPRPRPDFQPRP group="middle bin"
biopolymer_sequence=RRIRRRPPRLPRPRPRPGEVPRP group="top bin"
biopolymer_sequence=RRIRERPPRLPRPRPRPQLDPRP group="top bin"
biopolymer_sequence=RRIRFRPPRLPRPRPRPEQYPRP group="bottom bin"
biopolymer_sequence=RRIRNRPPRLPRPRPRPREEPRP group="middle bin"
biopolymer_sequence=RRIRLRPPRLPRPRPRPEEKPRP group="middle bin"
biopolymer_sequence=RRIRLRPPRLPRPRPRPKPRPRP group="top bin"
biopolymer_sequence=RRIRSRPPRLPRPRPRPYVAPRP group="bottom bin"
biopolymer_sequence=RRIRGRPPRLPRPRPRPSYKPRP group="bottom bin"
biopolymer_sequence=RRIRGRPPRLPRPRPRPLKHPRP group="middle bin"
biopolymer_sequence=RRIRWRPPRLPRPRPRPSMPPRP group="bottom bin"
biopolymer_sequence=RRIRWRPPRLPRPRPRPQWQPRP group="middle bin"

---

tested on: Escherichia coli TOP10; test: shrunken log2 fold change of peptide-encoding DNA abundance (4.5 h post-induction vs induction); higher = less antimicrobial activity (less host growth inhibition); details: time post-induction: 4.5 h; library: site-saturation at positions 5, 18, 19, 20
sequences and their reported shrunken log2 fold change
Experimental readout: shrunken log2 fold change

biopolymer_sequence=RRIRERPPRLPRPRPRPYHHPRP test_result=-1.56
biopolymer_sequence=RRIRPRPPRLPRPRPRPHQHPRP test_result=2.05
biopolymer_sequence=RRIRWRPPRLPRPRPRPPFKPRP test_result=0.331
biopolymer_sequence=RRIRGRPPRLPRPRPRPSIIPRP test_result=0.211
biopolymer_sequence=RRIRNRPPRLPRPRPRPMMCPRP test_result=-0.0344
biopolymer_sequence=RRIRLRPPRLPRPRPRPMMFPRP test_result=-0.269
biopolymer_sequence=RRIRVRPPRLPRPRPRPQDFPRP test_result=0.00129
biopolymer_sequence=RRIRDRPPRLPRPRPRPKKMPRP test_result=-0.0785

---

tested on: Escherichia coli TOP10; experiment: shrunken log2 fold change of peptide-encoding DNA abundance (4.5 h post-induction vs induction); higher = less antimicrobial activity (less host growth inhibition); conditions: time post-induction: 4.5 h; library: site-saturation at positions 5, 18, 19, 20;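 also: peptides expressed intracellularly from a pBAD plasmid library in pooled LB shake-flask culture, induced with 0.3% L-arabinose, DNA abundance read by NGS, three biological replicates, DESeq2 with apeglm shrinkage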
Experimental readout: shrunken log2 fold change

biopolymer_sequence=RRIRDRPPRLPRPRPRPQFCPRP target="Escherichia coli TOP10" test_result=-0.137
biopolymer_sequence=RRIRCRPPRLPRPRPRPRREPRP target="Escherichia coli TOP10" test_result=0.746
biopolymer_sequence=RRIRERPPRLPRPRPRPKWNPRP target="Escherichia coli TOP10" test_result=-0.447
biopolymer_sequence=RRIRVRPPRLPRPRPRPMCTPRP target="Escherichia coli TOP10" test_result=-0.0103
biopolymer_sequence=RRIRCRPPRLPRPRPRPVYWPRP target="Escherichia coli TOP10" test_result=0.134
biopolymer_sequence=RRIRTRPPRLPRPRPRPWWGPRP target="Escherichia coli TOP10" test_result=0.221
biopolymer_sequence=RRIRTRPPRLPRPRPRPTKAPRP target="Escherichia coli TOP10" test_result=0.249
biopolymer_sequence=RRIRCRPPRLPRPRPRPEMLPRP target="Escherichia coli TOP10" test_result=-0.077
biopolymer_sequence=RRIRIRPPRLPRPRPRPRGGPRP target="Escherichia coli TOP10" test_result=0.217
biopolymer_sequence=RRIRHRPPRLPRPRPRPDQAPRP target="Escherichia coli TOP10" test_result=0.106
biopolymer_sequence=RRIRIRPPRLPRPRPRPYWWPRP target="Escherichia coli TOP10" test_result=-0.259
biopolymer_sequence=RRIRRRPPRLPRPRPRPVWCPRP target="Escherichia coli TOP10" test_result=0.273
biopolymer_sequence=RRIRLRPPRLPRPRPRPGWPPRP target="Escherichia coli TOP10" test_result=0.406
biopolymer_sequence=RRIRDRPPRLPRPRPRPSFPPRP target="Escherichia coli TOP10" test_result=-0.362
biopolymer_sequence=RRIRKRPPRLPRPRPRPKCGPRP target="Escherichia coli TOP10" test_result=0.0305
biopolymer_sequence=RRIRCRPPRLPRPRPRPRVFPRP target="Escherichia coli TOP10" test_result=0.0449
biopolymer_sequence=RRIRERPPRLPRPRPRPHQCPRP target="Escherichia coli TOP10" test_result=-0.262
biopolymer_sequence=RRIRRRPPRLPRPRPRPAWCPRP target="Escherichia coli TOP10" test_result=0.568
biopolymer_sequence=RRIRKRPPRLPRPRPRPDFWPRP target="Escherichia coli TOP10" test_result=1.06
biopolymer_sequence=RRIRDRPPRLPRPRPRPLGVPRP target="Escherichia coli TOP10" test_result=0.577
biopolymer_sequence=RRIRLRPPRLPRPRPRPPQFPRP target="Escherichia coli TOP10" test_result=-0.165
biopolymer_sequence=RRIRPRPPRLPRPRPRPHCVPRP target="Escherichia coli TOP10" test_result=-0.0495
biopolymer_sequence=RRIRLRPPRLPRPRPRPMWRPRP target="Escherichia coli TOP10" test_result=0.194
biopolymer_sequence=RRIRCRPPRLPRPRPRPYGPPRP target="Escherichia coli TOP10" test_result=-0.398
biopolymer_sequence=RRIRPRPPRLPRPRPRPFNLPRP target="Escherichia coli TOP10" test_result=-0.771
biopolymer_sequence=RRIRERPPRLPRPRPRPLVPPRP target="Escherichia coli TOP10" test_result=-0.182
biopolymer_sequence=RRIRMRPPRLPRPRPRPRTVPRP target="Escherichia coli TOP10" test_result=0.472
biopolymer_sequence=RRIRARPPRLPRPRPRPLERPRP target="Escherichia coli TOP10" test_result=-0.0328
biopolymer_sequence=RRIRSRPPRLPRPRPRPHFKPRP target="Escherichia coli TOP10" test_result=-0.383
biopolymer_sequence=RRIRQRPPRLPRPRPRPYGVPRP target="Escherichia coli TOP10" test_result=-0.0132
biopolymer_sequence=RRIRDRPPRLPRPRPRPIEPPRP target="Escherichia coli TOP10" test_result=-0.0685
biopolymer_sequence=RRIRMRPPRLPRPRPRPQKLPRP target="Escherichia coli TOP10" test_result=0.0146
